# key: entry, value: normalized growth
# assay: chemical genetic growth profiling, strain panel (AID 1159580);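 further: tested at 20 µM; growth read once vehicle control cultures reached saturation at 30 °C; 1 = growth at the plate median or of vehicle wells; lower values mean less growth of the strain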
# run-parameters: S. cerevisiae deletion strains, growth OD, locus YFR003C, strain YPI1, hits give low values
Among all 5,500 compounds or so, about 2,000 (36%) were called active. Another 18% or so got no clear call; they are omitted. This is one part of the list.
Keep it simple and answer with nothing but the number.

The following compounds have reported results that may help.
{"compound": "CSC(=NNc1ccccc1)NC(=O)c1c(Cl)cccc1Cl", "normalized growth": 0.971}
{"compound": "COc1cc(CC/C(C)=N\\O)ccc1OCc1ccc(Cl)c(Cl)c1", "normalized growth": 0.968}
{"compound": "O=C1/C(=C/c2ccc(C(F)(F)F)cc2)COc2ccccc21", "normalized growth": 0.93}

Ask: Would you mind telling me what normalized growth value was observed for O=C(CCn1c(=O)oc2ccccc21)Sc1ccc(C(F)(F)F)cc1 ?
Result: 0.97

Ask: # repeat for N#Cc1ccc(NC(=O)Nc2cccc3ccccc23)cc1
Result: 0.968

Ask: Next compound: Cc1c(S(=O)(=O)c2ccc(Cl)cc2)csc1C(=O)NNc1cccc(Cl)c1
Result: 0.967
